Where these numbers come from: patent US20260132200A1

- Target of assay: T1, human CD3 expressed on cells (Jurkat, a CD3+ human T-cell line; human T cells) (human, UniProt P07766 23-126; P04234 22-100)
- T1 construct: also called FACS JURKAT
- T1 chain 1: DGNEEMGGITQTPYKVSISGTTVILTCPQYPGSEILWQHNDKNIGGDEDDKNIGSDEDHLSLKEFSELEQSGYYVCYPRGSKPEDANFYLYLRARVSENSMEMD
- T1 chain 2: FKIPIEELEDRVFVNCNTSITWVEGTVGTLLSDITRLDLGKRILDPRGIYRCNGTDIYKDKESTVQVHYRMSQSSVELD
- Method summary: FACS on Jurkat cells
- Procedure: CD20×CD3 bispecific antibodies and Control constructs, as set forth in Example 1, were tested via FACS for their ability to bind to Jurkat (CD3+, CD20− human T-cell line), Raji (CD3−, CD20+ Human B-cell line), or cynomolgus PBMCs (“mkT cells”). FACS data was acquired using the following protocol: Cells at 2×10⁵ per well were incubated with serially diluted antibodies for 30 min on ice. […]
Listing of recorded EC50 by entry.
Test readout: EC50

binder="BS3/20-003 (bispecific antibody, V domains shown) VH 1: EVQLVESGGGLVQPGRSLRLSCVASGFTFNDYAMHWVRQAPGKGLEWVSVISWNSDSIGYADSVKGRFTISRDNAKNSLYLQMHSLRAEDTALYYCAKDNHYGSGSYYYYQYGMDVWGQGTTVTVSS VH 2: EVQLVESGGGLVQPGRSLRLSCAASGFTFDDYTMHWVRQAPGKGLEWVSGISWNSGSIGYADSVKGRFTISRDNAKKSLYLQMNSLRAEDTALYYCAKDNSGYGHYYYGMDVWGQGTTVTVAS VL: EIVMTQSPATLSVSPGERATLSCRASQSVSSNLAWYQQKPGQAPRLLIYGASTRATGIPARFSGSGSGTEFTLTISSLQSEDFAVYYCQHYINWPLTFGGGTKVEIK" test_value="56.7 nM"
binder="BS3/20-001 (bispecific antibody, V domains shown, also called CD3×CD20 bispecific antibody) VH 1: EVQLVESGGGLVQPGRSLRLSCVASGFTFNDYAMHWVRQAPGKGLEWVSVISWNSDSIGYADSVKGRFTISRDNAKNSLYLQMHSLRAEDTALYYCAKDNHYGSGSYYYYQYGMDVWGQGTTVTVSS VH 2: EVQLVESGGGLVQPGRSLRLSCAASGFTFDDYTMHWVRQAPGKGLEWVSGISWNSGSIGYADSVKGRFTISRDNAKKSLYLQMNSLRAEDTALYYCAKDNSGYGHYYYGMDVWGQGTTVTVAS VL: AEIVMTQSPATLSVSPGERATLSCRASQSVSSNLAWYQQKPGQAPRLLIYGASTRATGIPARFSGSGSGTEFTLTISSLQSEDFAVYYCQHYINWPLTFGGGTKVEIK" test_value="38.5 nM"
binder="BS3/20-002 (bispecific antibody, V domains shown) VH 1: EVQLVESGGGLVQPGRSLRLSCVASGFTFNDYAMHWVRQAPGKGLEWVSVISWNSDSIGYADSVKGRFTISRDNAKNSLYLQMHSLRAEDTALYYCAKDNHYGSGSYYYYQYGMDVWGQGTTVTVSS VH 2: EVQLVESGGGLVQPGGSLRLSCAATGFTFDDFTMHWVRQAPGKGLEWVSGISWNSGSIGYVDSVKGRFTISRDNAKNSLYLQMNSLRAEDTALYYCAKDNSGYGYYYYGMDVWGQGTTVTVSS VL: EIVMTQSPATLSVSPGERATLSCRASHSVSRNSAWYQQKPGQAPRLLIYGASTRATGIPARFSGSGSGTEFTLTISSLQSEDFAIYYCQQYNNWPLTFGGGTKVEIK" test_value="56.2 nM"
